Each recorded value in this set is attributed to PubChem BioAssay (NCI).

System: DMS 114 small cell lung
Test Details: NCI tumour cell line growth inhibition, 48 h
Parameter Measured: TGI (µM)
Report the figure in µM without appending any unit label.

(Q) Endpoint output: TGI of c1ccc2c(CNCCCCCCNCc3cccc4ccccc34)cccc2c1 . Value?
(A) 20.2

(Q) Endpoint output: TGI of Cc1cc(C)cc(-n2c3nc(=O)n(C)c(=O)c-3nc3ccccc32)c1 . Value?
(A) 29.1

(Q) Endpoint output: TGI of CC1(O)C=CC2CCC1C2O (stereo unspecified) . Value?
(A) 32.1

* * *

System: MDA-N
Test Details: NCI tumour cell line growth inhibition, 48 h
Parameter Measured: TGI

molecule="O=C(c1ccccc1)C1C(C(=O)c2ccccc2)N1Cc1ccccc1 (stereo not drawn)" result="37.4 µM"
molecule=N#Cc1c(Nc2ccc(F)cc2)[n+]([O-])c2ccc(Cl)cc2[n+]1[O-] result="> 100 µM"

(Q) Endpoint output: TGI of CCOC(=O)c1ccc(C(=O)C(C(C)=O)C(=O)OC(C)(C)C)n1C (stereo not drawn) . Value?
(A) > 100 µM

(Q) Endpoint output: TGI of N#CC1=C(N)C(C#N)(C#N)C(c2ccc(F)cc2)C=C1C1CC1 (stereo not drawn) . Value?
(A) 6.67 µM

(Q) Endpoint output: TGI of O=NC1c2cccc3cccc(c23)C1N=O (stereo not drawn) . Value?
(A) 25.4 µM

(Q) Endpoint output: TGI of COP(=O)(OC)C(N)CCSC (stereo not drawn) . Value?
(A) > 100 µM

(Q) Endpoint output: TGI of CCOC(=O)c1nc2c3c(ncn2n1)Oc1c(c(-c2ccccc2)nn1-c1ccccc1)C3c1ccc(Cl)cc1 (stereo not drawn) . Value?
(A) > 100 µM

* * *

Tested on: UO-31 renal
Test Details: NCI tumour cell line growth inhibition, 48 h
# cutoff 30 µM applies to TGI; >= gives label 1, < gives label 0

Recorded results for 3 compounds are shown here.
compound="CC(C)[C@@H]1C=C(c2ccccc2)c2ccccc2C1C(C#N)(C#N)C(C)C (some centres undefined)" assayed_target="UO-31 renal" discrete_label="label 1"
compound="CCOC(=O)C1N(S(=O)(=O)c2ccc(C)cc2)CCC12c1ccccc1N(C(C)=O)C2C(/C=C/C(=O)OC)=C/C(=O)OC (centres undefined)" assayed_target="UO-31 renal" discrete_label="label 1"
compound=COc1ccc(N2CCN(C(=O)c3ccccc3Nc3ccnc(C(F)(F)F)c3)CC2)cc1 assayed_target="UO-31 renal" discrete_label="label 1"

(Q) Does the reported TGI for O=C(O)C(CCc1ccccn1)c1ccccc1 (centres undefined) fall at or above the 30 µM mark?
(A) label 1

(Q) Does the reported TGI for OC(c1ccc(Cl)cc1)(c1ccc(Cl)cc1)C(O)(c1ccc(Cl)cc1)c1ccc(Cl)cc1 fall at or above the 30 µM mark?
(A) label 1

(Q) Does the reported TGI for COc1ccc(/C=C/c2cc(O)cc(OC)c2)cc1 fall at or above the 30 µM mark?
(A) label 1

(Q) Does the reported TGI for COc1ccc2cccc(C(=O)c3ccc(C)c4c3CCC4)c2c1 fall at or above the 30 µM mark?
(A) label 1

(Q) Does the reported TGI for CCN(CC)CCO/N=C1\CC[C@H]2[C@@H]3CC=C4C[C@@H](O)CC[C@]4(C)[C@H]3CC[C@]12C fall at or above the 30 µM mark?
(A) label 1

(Q) Does the reported TGI for Oc1ccc2oc3ncc(Cl)c(-c4ccccc4)c3c2c1 fall at or above the 30 µM mark?
(A) label 1

(Q) Does the reported TGI for CCOC(=O)c1cc2c(OC(C)=O)ccc(OC(C)=O)c2s1 fall at or above the 30 µM mark?
(A) label 0

(Q) Does the reported TGI for C/C(=C/CO[Si](C)(C)C(C)(C)C)C(=O)N(C)c1ccccc1I fall at or above the 30 µM mark?
(A) label 0

(Q) Does the reported TGI for O=C1c2ccccc2C(=O)c2c1ccc(C(Br)Br)c2[N+](=O)[O-] fall at or above the 30 µM mark?
(A) label 0

(Q) Does the reported TGI for Cc1cccc(NC(=O)C(=O)C2C(=O)NC(=O)NC2=O)c1C fall at or above the 30 µM mark?
(A) label 1

(Q) Does the reported TGI for Cc1ccc2nc3c(C)c(Cl)c(=O)cc-3sc2c1 fall at or above the 30 µM mark?
(A) label 1

* * *

As shown below, each of these compounds has a reported GI50 value.
System: U251 CNS

compound=CC[C@@]1(O)C(=O)NCc2c1cc1n(c2=O)Cc2cc3ccccc3nc2-1 parameter_measured=GI50 result="2390 nM"
compound="CC(=O)OCC1OC(OC2C(COC(C)=O)OC(OCCC[S-])C(OC(C)=O)C2OC(C)=O)C(OC(C)=O)C(OC(C)=O)C1OC(C)=O.[Au+].c1ccc(CN2[CH-]N(Cc3ccccc3)C(c3ccccc3)=C2c2ccccc2)cc1 (stereo not drawn)" parameter_measured=GI50 result="2770 nM"

(Q) API: value(readout=GI50, system=U251 CNS) for record COc1ccc(-c2ccc3c(NC(=O)C4CC4)n[nH]c3n2)cc1
(A) 18000 nM

(Q) API: value(readout=GI50, system=U251 CNS) for record CC(CN=C(CC(=O)c1ccc(Br)cc1)c1ccccc1)N=C(CC(=O)c1ccc(Br)cc1)c1ccccc1 (stereo not drawn)
(A) > 100000 nM

(Q) API: value(readout=GI50, system=U251 CNS) for record COc1cc(-c2cc(-c3ccc(N(C)C)cc3)nc(N3CCOCC3)c2C#N)cc(OC)c1OC
(A) 1960 nM

(Q) API: value(readout=GI50, system=U251 CNS) for record CCOC(=O)c1sc(-c2ccc(OS(=O)(=O)c3cccs3)c(C=O)c2)nc1C
(A) 1190 nM

(Q) API: value(readout=GI50, system=U251 CNS) for record COc1ccc(/C(C)=C(\c2ccc(Cl)cc2)c2ccc(OCCN3CCCC3)cc2)cc1
(A) 3900 nM

(Q) API: value(readout=GI50, system=U251 CNS) for record CCN1CCN(c2nc(NNC(=O)Cc3ccccc3)nc(N3CCN(C(c4ccccc4)c4ccccc4)CC3)n2)CC1
(A) 1780 nM

* * *

Test system: SR leukemia
Test Details: NCI tumour cell line growth inhibition, 48 h
Parameter Measured: TGI

Previously resolved entries follow.
compound=CN(CCc1ccc(Cl)c(Cl)c1)[C@H]1CCCC[C@H]1N1CCCC1 parameter_measured=TGI result="> 100 µM"
compound="CC1(C)O[C@@H](CO)[C@H]([C@@]23OC[C@H]4OC(C)(C)OC4[C@@H]2OC(C)(C)O3)O1 (stereo not given in full)" parameter_measured=TGI result="> 100 µM"
compound=O=c1[nH]cc(CS(=O)(=O)Cc2c[nH]c(=O)[nH]c2=O)c(=O)[nH]1 parameter_measured=TGI result="> 100 µM"
compound=Cc1c2c3cc(O)ccc3nc-2n(C)c2ccccc12 parameter_measured=TGI result="21.3 µM"
compound="C#CCNC(Cc1cnc[nH]1)C(=O)O (stereo not given)" parameter_measured=TGI result="> 100 µM"
compound=O=C1NC(=O)/C(=C/C=C/c2ccccc2)S1 parameter_measured=TGI result="> 86.5 µM"

(Q) Endpoint output: TGI of CCCCCCCCCCCC(=O)OCC1OC(n2cc(F)c(=O)[nH]c2=O)C(NC(=O)OCc2ccccc2)C(O)C1O (stereo not given) . Value?
(A) 41.2 µM

(Q) Endpoint output: TGI of O=C1c2[nH]cc(CN3CCNCC3)c2C(=O)c2c1c(O)c1ccccc1c2O . Value?
(A) > 100 µM

(Q) Endpoint output: TGI of COc1ccc(OC)c(-c2nc3sccn3c2/C=C2/C(=O)Nc3ccc(Cl)cc32)c1 . Value?
(A) 53.4 µM

(Q) Endpoint output: TGI of O=C(N/N=C\c1cccc2ccccc12)Nc1ccc([N+](=O)[O-])cc1 . Value?
(A) > 100 µM

* * *

Tested on: M14 melanoma
Test Details: NCI tumour cell line growth inhibition, 48 h
Parameter Measured: TGI

Previously resolved entries follow.
compound=Nc1[nH]c(=O)ncc1F parameter_measured=TGI result="> 100 µM"
compound=COc1ccc2cccc(C(=O)c3ccc(C)c4c3CCC4)c2c1 parameter_measured=TGI result="57.6 µM"

(Q) Endpoint output: TGI of CC(=O)Oc1ccc(OC(C)=O)c2ccccc12 . Value?
(A) 30.4 µM

(Q) Endpoint output: TGI of O=NC1c2cccc3cccc(c23)C1N=O (stereo not drawn) . Value?
(A) 27.3 µM

(Q) Endpoint output: TGI of CC1(C)O[C@@H](CO)[C@H]([C@@]23OC[C@H]4OC(C)(C)OC4[C@@H]2OC(C)(C)O3)O1 (stereo partly drawn) . Value?
(A) > 100 µM

(Q) Endpoint output: TGI of O=C1/C(=C/c2ccccc2)CCc2ccc(Cl)nc21 . Value?
(A) 23.6 µM

(Q) Endpoint output: TGI of COC(=O)C1=C(O)C(C(=O)OC)[C@@]2(O)[C@@H](C(=O)OC)C(c3ccc(OC(=O)/C(=C/c4ccc(Cl)cc4)c4ccc(Cl)cc4)cc3)C[C@@H]1[C@@H]2C(=O)OC (stereo partly drawn) . Value?
(A) 41.8 µM

(Q) Endpoint output: TGI of Nc1nc(Cl)cc(N=Nc2ccccc2)n1 . Value?
(A) > 100 µM

(Q) Endpoint output: TGI of CC(C)CCC[C@@H](C)[C@H]1CC[C@H]2[C@@H]3CC=C4C[C@@H](OC(=O)c5cccc6c(=O)c7ccccc7[nH]c56)CC[C@]4(C)[C@H]3CC[C@]12C . Value?
(A) > 75 µM

(Q) Endpoint output: TGI of N#Cc1cccc(NC(=O)c2ccc(C(=O)O)c(C(=O)c3ccc(C(=O)O)c(C(=O)Nc4cccc(C#N)c4)c3)c2)c1 . Value?
(A) > 100 µM
